Form field: IC50 (one value per entry).
# Assay target: Lysophosphatidic acid receptor 5 (Homo sapiens, UniProt Q9H1C0)
# Sequence (Q9H1C0 whole entry): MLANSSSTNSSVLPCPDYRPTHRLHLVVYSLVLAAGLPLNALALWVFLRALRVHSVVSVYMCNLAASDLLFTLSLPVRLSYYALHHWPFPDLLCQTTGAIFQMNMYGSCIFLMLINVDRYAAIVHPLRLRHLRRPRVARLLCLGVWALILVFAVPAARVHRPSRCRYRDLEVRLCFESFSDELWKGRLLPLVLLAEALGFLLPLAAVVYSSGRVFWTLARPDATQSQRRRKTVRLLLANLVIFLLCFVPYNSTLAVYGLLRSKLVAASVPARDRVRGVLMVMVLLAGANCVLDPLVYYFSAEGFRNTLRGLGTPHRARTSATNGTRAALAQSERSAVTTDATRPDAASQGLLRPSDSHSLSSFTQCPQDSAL
# Protocol notes: Antagonist activity at human LPA5 receptor expressed in RH7777 cells assessed as inhibition of EC80 concentration of hexadecyl LPA-induced calcium mobilization incubated for 15 mins by FLIPR method
# Type: functional, cell-based
Kindly provide the numeric value in µM only, without the unit symbol.

Recorded result, `COc1cc2c(C(=O)N3CCC(F)CC3)cn(-c3cccc(C(C)C)c3)c(=O)c2cc1OC` , IC50: 0.2

Recorded result, `COc1cc2c(C(=O)N3CCOCC3)cn(-c3cccc(N(C)C)c3)c(=O)c2cc1OC` , IC50: 2.2

Recorded result, `COc1cc2c(C(=O)N3CCCCCCC3)cn(-c3cccc(N(C)C)c3)c(=O)c2cc1OC` , IC50: 0.301

Recorded result, `COc1cc2c(=O)n(-c3cccc(N(C)C)c3)cc(C(=O)N3CCC(F)CC3)c2cc1OCC(F)(F)F` , IC50: 2.5

---

# Assay target: Lysophosphatidic acid receptor 5 (Homo sapiens)
# Protocol notes: Antagonist activity at human LPA5 receptor expressed in RH7777 cells assessed as inhibition of EC80 concentration of hexadecyl LPA-induced calcium mobilization incubated for 15 mins by FLIPR method
# Type: functional, cell-based
Measured metric: IC50

{"columns": ["Smiles record", "IC50"],
 "data": [
  ["COc1cc2c(C(=O)N3CCC3)cn(-c3cccc(N(C)C)c3)c(=O)c2cc1OC", "> 10 µM"],
  ["COc1cc2c(=O)n(-c3cccc(N(C)C)c3)cc(C(=O)N3CCC(F)CC3)c2cc1OCc1cccc2ccccc12", "> 10 µM"]
]}

Next compound, IC50 to be filled in.
Recorded result, `COc1cc2c(C(=O)N3C4CCC3CC4)cn(-c3cccc(N(C)C)c3)c(=O)c2cc1OC` , IC50: > 10 µM
